Values were extracted from PubChem BioAssay (NCI).

Reported values of growth for individual entries
test system: HOP-92 NSCLC; test: NCI-60 one-dose screen, 48 h (100 = growth as untreated, 0 = no growth, -100 = all killed); details: 10 µM unless noted
This is part of a sample that, as a whole, favours compounds with a hit. Of some 83,000 tested, about 20% had one in any assay. Calls of active or inactive are those of the source. How the source made its calls: active means growth percent below 10; inactive means the rest.
Value kind: growth

> print(dat)
                                    compound  tested.target  value.kind          measured
 1       CCN(CC)C(=O)C1CCN(C(=O)c2ccccc2)CC1   HOP-92 NSCLC      growth  98.8% (inactive)
 2                  CCOC(=O)NNc1nncc2ccccc12   HOP-92 NSCLC      growth  95.1% (inactive)
 3  CN1CCN(Cn2nc(-c3cc(Cl)cc(Cl)c3Cl)n(/N=C/c3ccc(Cl)cc3)c2=S)CC1   HOP-92 NSCLC      growth  43.7% (inactive)
 4  COc1cc(Br)c(-c2nc(-c3ccccc3)c(-c3ccccc3)n2Cc2ccccc2)cc1OC   HOP-92 NSCLC      growth  45.7% (inactive)
 5  O=C(/C=C/c1ccco1)c1cccc(Nc2nc(Nc3ccccc3)nc(Nc3ccccc3)n2)c1   HOP-92 NSCLC      growth  49.1% (inactive)
 6  O=C1CCC(c2c(O)cc(O)c3c(=O)c(O)c(-c4ccc(O)c(O)c4)oc23)N1 (stereo not given)   HOP-92 NSCLC      growth  91.9% (inactive)
 7  CCC1S/C(=N\N=C(/C)c2cccs2)N(c2ccccc2)C1=O (stereo not given)   HOP-92 NSCLC      growth  85.1% (inactive)
 8            O=C(O)c1ccccc1C(=O)c1ccc(I)cc1   HOP-92 NSCLC      growth  78.3% (inactive)
 9  O=C(NCCNc1nccc(-c2c(-c3cccc(O)c3)nc3sccn23)n1)Nc1cc(C(F)(F)F)cc(C(F)(F)F)c1   HOP-92 NSCLC      growth  74.4% (inactive)
10  O=C(COc1ccc(Cl)cc1)N1CCN(Cc2ccc3c(c2)OCO3)CC1   HOP-92 NSCLC      growth  81.1% (inactive)
11  COc1ccc(-c2nn(-c3ccc(NC(=O)Nc4ccc(Cl)c(C(F)(F)F)c4)cc3)cc2-c2ccncc2)cc1Cl   HOP-92 NSCLC      growth     -22% (active)
12         Clc1ccc2c(c1)nnn1c3ncccc3c(Br)c21   HOP-92 NSCLC      growth  42.9% (inactive)
13  O=C(Nc1ccc(Cl)c(Cl)c1)Nc1ccc(Cl)c([N+](=O)[O-])c1   HOP-92 NSCLC      growth   -23.2% (active)
14  COc1cccc(-c2nc3sccn3c2-c2ccnc(NCCNC(=O)c3ccccc3)n2)c1   HOP-92 NSCLC      growth  77.8% (inactive)
15  COc1ccc(-c2nn(-c3ccc(NC(=O)c4ccc(Cl)c(C(F)(F)F)c4)cc3)cc2-c2ccncc2)cc1Cl   HOP-92 NSCLC      growth  -0.441% (active)
16               COc1ccccc1C(OC(C)=O)OC(C)=O   HOP-92 NSCLC      growth   115% (inactive)
17  CC(CN(C)C)CN1c2ccccc2CCc2ccccc21 (stereo not given)   HOP-92 NSCLC      growth  38.9% (inactive)
18  C=C1c2c(Cl)ccc(O)c2C(O)=C2C(=O)[C@]3(O)C(O)=C(C(N)=O)C(=O)[C@@H](N(C)C)[C@@H]3[C@@H](O)[C@H]12   HOP-92 NSCLC      growth   -37.3% (active)
19  Nc1nccc2c1ccn2-c1cccc(NC(=O)c2ccc(N3CCOCC3)c(C(F)(F)F)c2)c1   HOP-92 NSCLC      growth   -6.29% (active)
20  CC(=O)n1cc(/C=C2\N=C(c3ccc(Cl)cc3)N(c3ccc(S(=O)(=O)Nc4nccs4)cc3)C2=O)c2ccccc21   HOP-92 NSCLC      growth  95.9% (inactive)
